Quick reference for inhibition at 20 µM among some molecules
# Target Of Assay: dN-SARM1 protein (Homo sapiens, UniProt Q6SZW1)
# Construct: the N-terminal mitochondrial localization signal peptide of SARM1 was removed
# Procedure Details: In vitro biochemical assay for inhibiting SARM1 enzymatic activity (% inhibition rate), PC6 fluorescence method
# Test Settings: 20 μM compound; 50 μM NAD, 50 μM PC6, 50 μM NMN activator

Consider the reported inhibition at 20 µM for these molecules:
Molecule: COCCOCC(=O)Nc1ccc(-c2cnc3ccc(N(C)C(=O)OC(C)(C)C)cn23)cc1 [Compound 50]
Test Result: > 90%

Molecule: CC(C)(C)Oc1ccc2ncc(-c3cccc(NC(=O)C4CCOCC4)c3)n2c1 [Compound 55]
Test Result: > 90%

Molecule: c1cn2cc(N3CCOCC3)ccc2n1 [Compound 32]
Test Result: > 90%

Molecule: CN(C(=O)OC(C)(C)C)c1ccc2ncc(-c3cccc(NC(=O)CN4CCC(O)C4)c3)n2c1 (stereo not drawn) [Compound 148]
Test Result: > 90%

# ---- query molecule ----
Hi! What's the reported inhibition at 20 µM for CN(C(=O)OC(C)(C)C)c1ccc2ncc(-c3cccc(C(=O)O)c3)n2c1 [Compound 132] on dN-SARM1 protein (Homo sapiens, UniProt Q6SZW1)?
> 90%

* * *

# Target Of Assay: dN-SARM1 protein (Homo sapiens)
Quick reference for IC50 among some compounds

Consider the reported IC50 for these compounds:
Record Smiles: CNc1ccc2ncc(-c3cccc(S(=O)(=O)N(C)C(=O)OC(C)(C)C)c3)n2c1
IC50: 1 to 10 µM

Record Smiles: CN(C(=O)OC(C)(C)C)c1ccc2ncc(-c3ccn4ccnc4c3)n2c1
IC50: < 1 µM

Record Smiles: COCCOCCNS(=O)(=O)c1cccc(-c2cnc3ccc(N(C)C(=O)OC(C)(C)C)cn23)c1
IC50: 1 to 10 µM

Record Smiles: COCCOCC(=O)Nc1cccc(-c2cnc3ccc(N)cn23)c1
IC50: 1 to 10 µM

Record Smiles: CNc1ccc2ncc(-c3cccc(-n4cccc4)c3)n2c1
IC50: 1 to 10 µM

Fill blank: measured IC50 of the compound CN(C(=O)OC(C)(C)C)c1ccc2ncc(-c3ccnc4[nH]ccc34)n2c1 is ____.
1 to 10 µM

Fill blank: measured IC50 of the compound CC(C)(C)OC(=O)N(C/C=C/c1cccc(NC(=O)C2CCOCC2)c1)c1ccc2ncc(-c3ccccc3)n2c1 is ____.
1 to 10 µM

Fill blank: measured IC50 of the compound O=C(COCCOCc1ccccc1)Nc1cccc(-c2cnc3ccc(NCCCc4ccccc4)cn23)c1 is ____.
1 to 10 µM

* * *

# Target Of Assay: dN-SARM1 protein (Homo sapiens, UniProt Q6SZW1)
# Construct: the N-terminal mitochondrial localization signal peptide of SARM1 was removed
# Sequence (Q6SZW1 28-724): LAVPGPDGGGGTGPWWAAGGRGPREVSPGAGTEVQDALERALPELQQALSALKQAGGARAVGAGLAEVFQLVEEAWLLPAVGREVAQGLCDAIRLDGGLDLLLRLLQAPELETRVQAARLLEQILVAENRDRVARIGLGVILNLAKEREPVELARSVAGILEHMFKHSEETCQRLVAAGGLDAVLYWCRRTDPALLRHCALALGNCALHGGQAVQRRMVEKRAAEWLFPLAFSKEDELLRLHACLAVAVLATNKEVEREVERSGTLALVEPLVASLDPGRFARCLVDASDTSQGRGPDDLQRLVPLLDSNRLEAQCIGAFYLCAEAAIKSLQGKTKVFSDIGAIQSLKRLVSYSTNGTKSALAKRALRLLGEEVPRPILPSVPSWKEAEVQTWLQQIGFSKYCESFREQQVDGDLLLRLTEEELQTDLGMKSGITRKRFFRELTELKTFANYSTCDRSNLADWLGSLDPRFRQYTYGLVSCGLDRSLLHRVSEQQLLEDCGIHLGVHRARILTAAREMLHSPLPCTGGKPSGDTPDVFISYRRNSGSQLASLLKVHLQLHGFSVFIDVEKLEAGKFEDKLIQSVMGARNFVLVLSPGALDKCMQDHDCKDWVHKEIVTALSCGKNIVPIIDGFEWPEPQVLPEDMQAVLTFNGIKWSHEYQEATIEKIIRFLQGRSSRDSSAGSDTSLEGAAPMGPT
# Procedure Details: In vitro biochemical assay for inhibiting SARM1 enzymatic activity (% inhibition rate), PC6 fluorescence method
# Test Settings: 20 μM compound; 50 μM NAD, 50 μM PC6, 50 μM NMN activator
Quick reference for inhibition at 20 µM among some molecules

Consider the reported inhibition at 20 µM for these molecules:
Molecule: CCOC(=O)CCC(=O)Nc1cccc(-c2cnc3ccc(N(C)C(=O)OC(C)(C)C)cn23)c1 [Compound 151]
Parameter: inhibition at 20 µM
Test Result: > 90%

Molecule: COCCOCCNS(=O)(=O)c1cccc(-c2cnc3ccc(N(C)C(=O)OC(C)(C)C)cn23)c1 [Compound 108]
Parameter: inhibition at 20 µM
Test Result: 50 to 89%

Molecule: c1ccc(-c2cnc3ccc(N4CCOCC4)cn23)cc1 [Compound 34]
Parameter: inhibition at 20 µM
Test Result: > 90%

Molecule: CNc1ccc2ncc(-c3cccc(NC(=O)COCCOC)c3)n2c1 [Compound 77]
Parameter: inhibition at 20 µM
Test Result: > 90%

Molecule: CNc1ccc2ncc(-c3cccc(C(=O)NCCOCCOC)c3)n2c1 [Compound 134]
Parameter: inhibition at 20 µM
Test Result: > 90%

Molecule: CC(C)(C)OC(=O)Nc1ccc2ncc(-c3ccc(C(=O)NC4CCOCC4)s3)n2c1 [Compound 127]
Parameter: inhibition at 20 µM
Test Result: 50 to 89%

Molecule: CC(C)(C)OC(=O)NCc1ccc2ncc(-c3cccc(N)c3)n2c1 [Compound 144]
Parameter: inhibition at 20 µM
Test Result: > 90%

Molecule: CC(C)(C)OC(=O)Nc1ccc2ncc(-c3cccc(NC(=O)COCCOCCOCC(=O)Nc4cccc(-c5cnc6ccc(NC(=O)OC(C)(C)C)cn56)c4)c3)n2c1 [Compound 123]
Parameter: inhibition at 20 µM
Test Result: > 90%

Fill blank: measured inhibition at 20 µM of the molecule COCCOCC(=O)Nc1cccc(-c2cnc3ccc(N)cn23)c1 [Compound 128] is ____.
> 90%

Fill blank: measured inhibition at 20 µM of the molecule CNc1ccc2ncc(-c3ccccc3)n2n1 [Compound 20] is ____.
50 to 89%

Fill blank: measured inhibition at 20 µM of the molecule CCOC(=O)c1ccc2ncc(-c3ccccc3)n2c1 [Compound 24] is ____.
> 90%

* * *

Protein target, amino acids: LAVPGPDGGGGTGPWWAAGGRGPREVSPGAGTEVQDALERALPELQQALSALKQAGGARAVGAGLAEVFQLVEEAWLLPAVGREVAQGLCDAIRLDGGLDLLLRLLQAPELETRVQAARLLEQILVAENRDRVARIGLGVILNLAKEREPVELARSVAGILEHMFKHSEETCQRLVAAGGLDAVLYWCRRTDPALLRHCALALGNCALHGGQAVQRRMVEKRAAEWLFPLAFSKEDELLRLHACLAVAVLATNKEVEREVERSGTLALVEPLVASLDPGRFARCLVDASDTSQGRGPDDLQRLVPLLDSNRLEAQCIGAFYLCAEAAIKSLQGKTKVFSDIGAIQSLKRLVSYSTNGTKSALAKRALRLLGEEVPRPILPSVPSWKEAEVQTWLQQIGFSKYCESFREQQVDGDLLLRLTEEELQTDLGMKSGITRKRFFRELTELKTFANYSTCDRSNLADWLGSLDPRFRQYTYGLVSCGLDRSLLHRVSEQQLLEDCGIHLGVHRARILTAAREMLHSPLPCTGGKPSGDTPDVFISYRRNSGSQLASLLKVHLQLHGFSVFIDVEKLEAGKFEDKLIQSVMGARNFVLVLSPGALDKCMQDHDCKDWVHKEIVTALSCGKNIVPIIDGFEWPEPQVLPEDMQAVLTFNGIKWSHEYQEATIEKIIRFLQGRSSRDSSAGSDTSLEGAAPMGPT
Quick reference for IC50 among some compounds

Consider the reported IC50 for these compounds:
Compound: CN(C(=O)OC(C)(C)C)c1ccc2ncc(-c3cccc(OCCOCc4ccccc4)c3)n2c1 [Compound 156]
Parameter: IC50
Test Result: 1000 to 10000 nM

Compound: CN(C(=O)OC(C)(C)C)c1ccc2ncc(-c3cc4cc[nH]c4cn3)n2c1 [Compound 161]
Parameter: IC50
Test Result: < 1000 nM

Compound: CNC(=O)c1ccccc1-c1cnc2ccc(N(C)C(=O)OC(C)(C)C)cn12 [Compound 174]
Parameter: IC50
Test Result: < 1000 nM

Compound: COc1cccc(-c2cnc3ccc(N(C)C(=O)OC(C)(C)C)cn23)c1 [Compound 13]
Parameter: IC50
Test Result: < 1000 nM

Compound: CNc1ccc2ncc(-c3ccccn3)n2c1 [Compound 76]
Parameter: IC50
Test Result: 1000 to 10000 nM

Fill blank: measured IC50 of the compound CNc1ccc2ncc(-c3cccc(C(=O)NCCOCCOC)c3)n2c1 [Compound 134] is ____.
< 1000 nM

Fill blank: measured IC50 of the compound O=C(Nc1cccc(-c2cnc3ccc(N4CCOCC4)cn23)c1)[C@H]1C[C@@H](N2CCOCC2)C1 [Compound 230] is ____.
1000 to 10000 nM

Fill blank: measured IC50 of the compound CNc1ccc2ncc(-c3ccccc3)n2n1 [Compound 20] is ____.
< 1000 nM

These measurements were taken from patent US20240368168A1.
